- System: phospho-AKT in RAW 264.7 cells (PI3Kγ)
- Protocol description: PI3Kγ selective assay, phospho-AKT in RAW 264.7 cells
- Format: cell-based
- Run conditions: Mus musculus, RAW264.7; stimulated with C5a; ranges less than 100 nM and between 100 nM and 1 μM (given as 100-1000); read-out: IC50 for phospho-AKT, RAW 264.7 cell model
Endpoint: IC50

COc1ncc(-c2cccc3cc([C@H](C)Nc4nc(N)ncc4C#N)n(-c4ccccc4)c(=O)c23)cn1 = < 100 nM
CCS(=O)(=O)c1cccc(-c2cnc(N)nc2N[C@@H](C)c2cc3cccc(Cl)c3c(=O)n2-c2ccccc2)c1 = < 100 nM
C[C@H](Nc1ncncc1-c1cccc(S(=O)(=O)N(C)C)c1)c1cc2cccc(Cl)c2c(=O)n1-c1ccccc1 = < 100 nM

Each compound below has a reported value. Please supply its IC50.
1. C[C@H](Nc1nc(N)ncc1-c1cccc(NS(C)(=O)=O)c1)c1cc2cccc(Cl)c2c(=O)n1-c1ccccc1
2. COc1ncc(-c2cccc3cc([C@H](C)Nc4ncnc(N)c4C#N)n(-c4ccccc4)c(=O)c23)cn1
3. CCOc1nc(-c2cnc(N)nc2N[C@@H](C)c2cc3cccc(-c4ccc(=O)n(C)c4)c3c(=O)n2-c2ccccc2)cs1
4. C[C@H](Nc1nc(N)ncc1C#N)c1cc2cccc(Cl)c2c(=O)n1-c1ccc(F)c(F)c1
5. C[C@H](Nc1nc(N)ncc1-c1cncs1)c1cc2cccc(-c3ccc(=O)n(C)c3)c2c(=O)n1-c1ccccc1
6. C[C@H](Nc1nc(N)ncc1-c1ccoc1)c1cc2cccc(Cl)c2c(=O)n1-c1ccccc1
7. C[C@H](Nc1nc(N)ncc1-c1cnc(S(C)(=O)=O)s1)c1cc2cccc(Cl)c2c(=O)n1-c1ccccc1

Ans:
< 100 nM
100 to 1000 nM
< 100 nM
< 100 nM
100 to 1000 nM
< 100 nM
< 100 nM

Each compound below has a reported value. Please supply its IC50.
1. COc1cc(-n2c([C@H](C)Nc3nc(N)ncc3C#N)cc3cccc(Cl)c3c2=O)ccc1F
2. C[C@H](Nc1nc(N)ncc1C#N)c1cc2cccc(-c3cccc(NS(=O)(=O)N(C)C)c3)c2c(=O)n1-c1ccccc1
3. CC(C)n1c([C@H](C)Nc2ncnc(N)c2C#N)cc2cccc(Cl)c2c1=O

Ans:
["< 100 nM", "< 100 nM", "100 to 1000 nM"]

Each compound below has a reported value. Please supply its IC50.
1. C[C@H](Nc1nc(N)ncc1-c1cccc(N(C)S(C)(=O)=O)c1)c1cc2cccc(Cl)c2c(=O)n1-c1ccccc1
2. C[C@H](Nc1nc(N)ncc1-c1cccc(S(C)(=O)=O)c1)c1cc2cccc(C(F)(F)F)c2c(=O)n1-c1ccccc1
3. C[C@H](Nc1nc(N)ncc1-c1cccc(NS(=O)(=O)N(C)C)c1)c1cc2cccc(Cl)c2c(=O)n1-c1ccccc1

Ans:
["< 100 nM", "< 100 nM", "< 100 nM"]

Each compound below has a reported value. Please supply its IC50.
1. CCOc1nc(-c2cnc(N)nc2N[C@@H](C)c2cc3cccc(-c4cnc(OC)nc4)c3c(=O)n2-c2ccccc2)cs1
2. C[C@H](Nc1nc(N)ncc1C#N)c1cc2cccc(Cl)c2c(=O)n1-c1cccc(C#N)c1
3. C[C@H](Nc1nc(N)ncc1-c1cccc(S(=O)(=O)C2CC2)c1)c1cc2cccc(Cl)c2c(=O)n1-c1ccccc1
4. CNS(=O)(=O)c1cccc(-c2cnc(N)nc2N[C@@H](C)c2cc3cccc(Cl)c3c(=O)n2-c2ccccc2)c1

Ans:
1: 100 to 1000 nM; 2: < 100 nM; 3: < 100 nM; 4: < 100 nM

Each compound below has a reported value. Please supply its IC50.
1. C[C@H](Nc1nc(N)ncc1-c1cn[nH]c1)c1cc2cccc(Cl)c2c(=O)n1-c1ccccc1
2. C[C@H](Nc1nc(N)ncc1-c1cccc(S(C)(=O)=O)c1)c1cc2cccc(Cl)c2c(=O)n1-c1ccccc1
3. COc1ncc(-c2cccc3cc([C@H](C)Nc4nc(N)ncc4-c4cncs4)n(-c4ccccc4)c(=O)c23)cn1
4. CC(C)OC(=O)c1cccc(-n2c([C@H](C)Nc3nc(N)ncc3C#N)cc3cccc(Cl)c3c2=O)c1
5. N#Cc1cnc(N)nc1NCc1cc2cccc(Cl)c2c(=O)n1-c1ccccc1
6. C[C@H](Nc1nc(N)ncc1-c1cccc(S(N)(=O)=O)c1)c1cc2cccc(Cl)c2c(=O)n1-c1ccccc1
7. Cc1ccc(NS(C)(=O)=O)cc1-c1cnc(N)nc1N[C@@H](C)c1cc2cccc(Cl)c2c(=O)n1-c1ccccc1
8. COc1cc(-c2cccc3cc([C@H](C)Nc4nc(N)ncc4C#N)n(-c4ccccc4)c(=O)c23)ccn1

Ans:
1: 100 to 1000 nM; 2: < 100 nM; 3: 100 to 1000 nM; 4: 100 to 1000 nM; 5: < 100 nM; 6: < 100 nM; 7: < 100 nM; 8: < 100 nM

---

- Tested on: Balb/c splenic B cells
- Protocol description: B cell activation and proliferation assay
- Assay type: cell-based
- Run conditions: Mus musculus, read-out: B cell proliferation EC50
- Protocol: The ability of one or more subject compounds to inhibit B cell activation and proliferation is determined according to standard procedures known in the art. For example, an in vitro cellular proliferation assay is established that measures the metabolic activity of live cells. The assay is performed in a 96 well microtiter plate using Alamar Blue reduction. […] Alamar Blue fluoresce is read at 560Ex/590Em, and IC50 or EC50 values are calculated using GraphPad Prism 5.
Endpoint: EC50

C[C@H](Nc1nc(N)ncc1C(=O)N1CCC1)c1cc2cccc(-c3cnn(C)c3)c2c(=O)n1-c1ccccc1 [Compound 204] = 1000 to 10000 nM
COc1nc(-c2cnc(N)nc2N[C@@H](C)c2cc3cccc(Cl)c3c(=O)n2-c2ccccc2)cs1 [Compound 223] = < 100 nM

Okay, next one:
Q: Consider the molecule COc1cc(-c2cccc3nc([C@H](C)Nc4nc(N)ncc4C#N)n(-c4ccccc4)c(=O)c23)ccn1 [Compound 116] and give its recorded EC50.
Ans: < 100 nM

---

- Tested target: PI3Kβ (Homo sapiens)
- Sequence (P42338 whole entry): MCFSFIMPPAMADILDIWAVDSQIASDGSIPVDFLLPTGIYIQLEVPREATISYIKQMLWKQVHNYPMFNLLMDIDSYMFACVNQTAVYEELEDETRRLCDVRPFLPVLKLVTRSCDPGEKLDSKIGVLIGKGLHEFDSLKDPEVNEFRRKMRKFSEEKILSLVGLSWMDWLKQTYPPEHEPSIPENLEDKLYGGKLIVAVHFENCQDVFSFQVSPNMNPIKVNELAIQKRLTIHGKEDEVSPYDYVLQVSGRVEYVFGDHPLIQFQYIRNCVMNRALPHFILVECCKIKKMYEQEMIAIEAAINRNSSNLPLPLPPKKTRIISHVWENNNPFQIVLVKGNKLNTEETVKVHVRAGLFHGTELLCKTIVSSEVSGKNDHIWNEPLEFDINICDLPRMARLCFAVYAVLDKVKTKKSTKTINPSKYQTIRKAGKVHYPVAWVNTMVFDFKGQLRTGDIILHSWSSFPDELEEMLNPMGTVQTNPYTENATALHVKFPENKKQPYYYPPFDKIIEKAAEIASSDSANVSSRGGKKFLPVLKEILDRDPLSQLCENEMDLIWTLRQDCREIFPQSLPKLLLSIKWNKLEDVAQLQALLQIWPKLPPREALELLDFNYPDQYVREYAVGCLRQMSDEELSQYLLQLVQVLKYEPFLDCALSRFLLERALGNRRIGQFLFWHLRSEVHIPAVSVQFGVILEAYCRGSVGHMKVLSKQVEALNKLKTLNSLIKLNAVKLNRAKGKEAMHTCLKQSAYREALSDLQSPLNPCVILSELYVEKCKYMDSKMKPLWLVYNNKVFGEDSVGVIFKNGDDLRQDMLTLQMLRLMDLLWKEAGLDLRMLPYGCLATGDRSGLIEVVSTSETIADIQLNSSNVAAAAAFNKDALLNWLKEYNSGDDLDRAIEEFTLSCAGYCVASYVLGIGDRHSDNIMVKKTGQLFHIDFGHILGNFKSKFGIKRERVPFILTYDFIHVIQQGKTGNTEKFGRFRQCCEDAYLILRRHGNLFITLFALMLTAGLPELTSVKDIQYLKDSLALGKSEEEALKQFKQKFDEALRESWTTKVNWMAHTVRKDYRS
- Sequence (P27986 whole entry partner): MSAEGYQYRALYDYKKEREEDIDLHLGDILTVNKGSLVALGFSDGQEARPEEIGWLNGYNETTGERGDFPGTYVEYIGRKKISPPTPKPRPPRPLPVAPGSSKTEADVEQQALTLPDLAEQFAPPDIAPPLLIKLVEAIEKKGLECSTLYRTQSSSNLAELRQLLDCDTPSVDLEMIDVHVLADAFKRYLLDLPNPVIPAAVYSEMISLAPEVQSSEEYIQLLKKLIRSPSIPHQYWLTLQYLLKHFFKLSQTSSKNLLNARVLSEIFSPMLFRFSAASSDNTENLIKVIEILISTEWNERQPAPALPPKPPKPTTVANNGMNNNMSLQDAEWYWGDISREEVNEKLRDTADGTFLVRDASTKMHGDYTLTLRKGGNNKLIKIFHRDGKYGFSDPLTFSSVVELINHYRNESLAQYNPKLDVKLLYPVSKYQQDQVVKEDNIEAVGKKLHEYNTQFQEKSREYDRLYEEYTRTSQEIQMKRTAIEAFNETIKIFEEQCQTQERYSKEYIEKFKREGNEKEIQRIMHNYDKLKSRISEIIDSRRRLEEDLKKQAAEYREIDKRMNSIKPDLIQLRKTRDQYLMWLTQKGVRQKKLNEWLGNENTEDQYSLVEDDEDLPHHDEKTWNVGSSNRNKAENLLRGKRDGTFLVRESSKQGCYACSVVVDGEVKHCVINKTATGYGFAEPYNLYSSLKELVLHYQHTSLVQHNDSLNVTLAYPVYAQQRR
Endpoint: IC50

C[C@H](Nc1nc(N)ncc1C#N)c1cc2cccc(-c3cncc(O)c3)c2c(=O)n1-c1ccccc1 = 1 to 10 µM
C[C@H](Nc1nc(N)ncc1-c1ccsc1)c1cc2cccc(Cl)c2c(=O)n1-c1ccccc1 = 1 to 10 µM
COc1cc(-c2cccc3nc([C@H](C)Nc4nc(N)ncc4C#N)n(-c4ccccc4)c(=O)c23)ccn1 = 1 to 10 µM

Q: Consider the molecule C[C@H](Nc1nc(N)ncc1-c1cccs1)c1cc2cccc(Cl)c2c(=O)n1-c1ccccc1 and give its recorded IC50.
Ans: 1 to 10 µM

---

Exercise: for every item that follows, state its recorded IC50.
- Tested target: PI3Kδ (Homo sapiens, UniProt O00329)
- Construct: purchased Millipore Corporation 14-604-K
- Sequence (O00329 whole entry): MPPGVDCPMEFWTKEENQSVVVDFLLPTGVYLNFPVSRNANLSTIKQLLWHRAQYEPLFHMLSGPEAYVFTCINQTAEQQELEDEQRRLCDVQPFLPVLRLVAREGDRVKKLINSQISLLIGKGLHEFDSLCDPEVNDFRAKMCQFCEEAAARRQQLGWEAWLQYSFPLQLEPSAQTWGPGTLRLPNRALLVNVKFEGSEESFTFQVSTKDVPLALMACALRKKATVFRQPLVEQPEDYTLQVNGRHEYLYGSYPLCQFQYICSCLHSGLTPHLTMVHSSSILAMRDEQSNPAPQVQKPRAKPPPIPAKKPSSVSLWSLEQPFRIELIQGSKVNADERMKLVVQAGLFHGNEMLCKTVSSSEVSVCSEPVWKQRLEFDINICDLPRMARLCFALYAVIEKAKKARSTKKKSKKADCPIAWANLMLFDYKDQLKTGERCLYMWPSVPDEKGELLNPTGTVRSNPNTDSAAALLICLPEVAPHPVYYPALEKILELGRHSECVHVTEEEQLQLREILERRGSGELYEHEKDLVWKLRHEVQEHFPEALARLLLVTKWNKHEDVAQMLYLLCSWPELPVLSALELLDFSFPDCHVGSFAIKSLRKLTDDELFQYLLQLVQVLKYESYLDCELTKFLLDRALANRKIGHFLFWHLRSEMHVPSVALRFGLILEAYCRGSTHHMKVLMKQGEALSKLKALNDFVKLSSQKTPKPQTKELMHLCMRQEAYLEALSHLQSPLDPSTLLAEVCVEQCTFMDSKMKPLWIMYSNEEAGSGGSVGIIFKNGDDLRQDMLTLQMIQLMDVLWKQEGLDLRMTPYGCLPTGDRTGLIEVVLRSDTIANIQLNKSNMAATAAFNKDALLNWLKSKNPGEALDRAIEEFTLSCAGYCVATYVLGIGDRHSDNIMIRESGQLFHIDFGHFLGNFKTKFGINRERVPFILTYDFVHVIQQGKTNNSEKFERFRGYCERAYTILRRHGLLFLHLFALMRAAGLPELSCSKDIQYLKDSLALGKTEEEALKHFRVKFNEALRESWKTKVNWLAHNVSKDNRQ
- Sequence (P27986 whole entry partner): as the sequence (P27986 whole entry partner) above
- Protocol description: PI3-Kinase HTRF assay, PI3Kδ
- Assay type: biochemical
- Run conditions: bins Greater than 10 μM and Greater than 1 μM to 10 μM; 10 μM ATP, PIP2 at 10 μM

COc1cc(-c2cccc3cc([C@H](C)Nc4nc(N)ncc4C(=O)N4CCOCC4)n(-c4ccccc4)c(=O)c23)ccn1 = 1 to 10 µM
COc1cc(-n2c([C@H](C)Nc3nc(N)ncc3C#N)cc3cccc(Cl)c3c2=O)ccc1F = 1 to 10 µM
CCN(C)C(=O)c1cnc(N)nc1N[C@@H](C)c1cc2cccc(-c3ccnc(OC)c3)c2c(=O)n1-c1ccccc1 = 1 to 10 µM
COc1cc(-c2cccc3cc([C@H](C)Nc4nc(N)ncc4C(=O)N(C)CCO)n(-c4ccccc4)c(=O)c23)ccn1 = 1 to 10 µM
C[C@H](Nc1nc(N)ncc1NC(=O)c1ccccc1)c1cc2cccc(Cl)c2c(=O)n1-c1ccccc1 = 1 to 10 µM
C[C@H](Nc1nc(N)ncc1C(=O)N1CCC1)c1cc2cccc(Cl)c2c(=O)n1-c1ccccc1 = 1 to 10 µM

Q: Consider the compound C[C@H](Nc1nc(N)ncc1S(C)(=O)=O)c1cc2cccc(Cl)c2c(=O)n1-c1ccccc1 and give its recorded IC50.
Ans: 1 to 10 µM

---

- Tested target: PI3Kα (Homo sapiens)
- Construct: purchased Millipore Corporation 14-602-K
- Sequence (P42336 whole entry): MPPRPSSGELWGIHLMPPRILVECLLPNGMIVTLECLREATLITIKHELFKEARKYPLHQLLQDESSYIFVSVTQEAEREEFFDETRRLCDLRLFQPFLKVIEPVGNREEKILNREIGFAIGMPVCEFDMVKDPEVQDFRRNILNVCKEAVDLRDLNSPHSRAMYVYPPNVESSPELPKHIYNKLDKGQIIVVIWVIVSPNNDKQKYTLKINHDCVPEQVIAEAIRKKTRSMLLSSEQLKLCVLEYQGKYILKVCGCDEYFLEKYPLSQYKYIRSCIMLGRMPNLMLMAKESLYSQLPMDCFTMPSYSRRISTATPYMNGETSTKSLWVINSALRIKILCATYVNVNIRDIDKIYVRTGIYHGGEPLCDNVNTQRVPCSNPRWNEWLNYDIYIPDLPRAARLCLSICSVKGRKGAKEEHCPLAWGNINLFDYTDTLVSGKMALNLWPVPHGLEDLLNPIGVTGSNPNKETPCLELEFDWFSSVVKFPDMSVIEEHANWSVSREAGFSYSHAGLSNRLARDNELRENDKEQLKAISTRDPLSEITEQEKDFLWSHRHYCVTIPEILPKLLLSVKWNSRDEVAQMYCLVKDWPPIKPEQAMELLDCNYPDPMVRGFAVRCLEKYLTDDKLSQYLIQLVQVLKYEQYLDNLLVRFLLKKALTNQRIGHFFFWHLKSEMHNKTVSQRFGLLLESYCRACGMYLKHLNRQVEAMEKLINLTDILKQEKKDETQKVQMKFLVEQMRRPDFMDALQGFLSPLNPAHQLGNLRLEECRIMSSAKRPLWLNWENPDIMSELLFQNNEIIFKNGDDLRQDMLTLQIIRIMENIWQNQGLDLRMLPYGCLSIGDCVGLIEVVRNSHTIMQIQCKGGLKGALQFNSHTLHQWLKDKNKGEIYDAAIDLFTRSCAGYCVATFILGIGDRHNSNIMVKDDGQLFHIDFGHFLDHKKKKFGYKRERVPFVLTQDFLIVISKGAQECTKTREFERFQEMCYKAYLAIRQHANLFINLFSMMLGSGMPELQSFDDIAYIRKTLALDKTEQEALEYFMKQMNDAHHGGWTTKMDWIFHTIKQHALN
- Sequence (P27986 whole entry partner): as the sequence (P27986 whole entry partner) above
- Protocol description: PI3-Kinase HTRF assay, PI3Kα
- Format: biochemical
- Run conditions: column bins 1 μM to 100 nM (given as 100-1000) and Less than 100 nM; 10 μM ATP, PIP2 at 10 μM; read-out: IC50 P13Kα
pIC50: −log10 of the molar value.
Exercise: for every item that follows, state its recorded pIC50.

C[C@H](Nc1nc(N)ncc1C#N)c1cc2cccc(-c3cccc(N(C)S(C)(=O)=O)c3)c2c(=O)n1-c1ccccc1 = 6.00 to 7.00

Okay, next one:
Q: Please respond with reported pIC50 (system PI3Kα (Homo sapiens)) for CCOc1cncc(-c2cccc3cc([C@H](C)Nc4nc(N)ncc4C#N)n(-c4ccccc4)c(=O)c23)c1 .
Ans: 6.00 to 7.00
